# testedSystem: furin, P09958;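 note: purified furin at 1:10 enzyme:substrate in 50 mM HEPES pH 7.5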
# Sequence (P09958 whole entry): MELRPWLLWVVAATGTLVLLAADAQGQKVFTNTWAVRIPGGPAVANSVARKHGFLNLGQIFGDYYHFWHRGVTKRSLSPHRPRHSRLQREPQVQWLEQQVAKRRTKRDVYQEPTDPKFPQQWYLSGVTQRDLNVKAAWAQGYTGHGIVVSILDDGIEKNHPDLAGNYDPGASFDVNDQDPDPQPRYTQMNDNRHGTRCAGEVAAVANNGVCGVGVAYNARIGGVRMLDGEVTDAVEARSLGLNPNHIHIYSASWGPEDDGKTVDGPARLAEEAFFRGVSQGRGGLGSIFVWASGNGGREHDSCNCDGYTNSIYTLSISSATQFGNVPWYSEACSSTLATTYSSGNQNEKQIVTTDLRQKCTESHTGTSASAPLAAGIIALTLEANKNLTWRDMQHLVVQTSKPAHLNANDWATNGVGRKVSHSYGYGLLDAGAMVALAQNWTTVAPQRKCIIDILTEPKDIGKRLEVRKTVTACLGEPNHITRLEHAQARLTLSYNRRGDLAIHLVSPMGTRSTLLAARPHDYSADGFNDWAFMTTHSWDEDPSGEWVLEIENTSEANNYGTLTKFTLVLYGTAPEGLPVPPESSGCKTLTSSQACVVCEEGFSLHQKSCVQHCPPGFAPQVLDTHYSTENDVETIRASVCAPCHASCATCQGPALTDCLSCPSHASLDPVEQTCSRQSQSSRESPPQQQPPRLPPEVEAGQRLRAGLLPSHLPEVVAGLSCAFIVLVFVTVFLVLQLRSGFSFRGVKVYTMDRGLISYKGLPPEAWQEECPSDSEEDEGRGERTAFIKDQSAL
# testName: furin cleavage Z-score vs untreated control; higher = more cleavage, active = 3.5 or more, inactive = 1 or less, 8 variable residues between constant flanks
# runConditions: 15 min
The other results are listed elsewhere or left out. The hit rate among all sequences tested is not known here.
Kindly supply the reported furin cleavage Z-score values for the records listed here.
Answers are plain numbers.

For every listed record, write down its furin cleavage Z-score.
1. CARALRSVSRAGNASASA [FS-2641]
2. CAVVCCSASYAGNASASA [HC2043]
3. CALKGSSGGPAGNASASA [HC741]
4. CALTCYIKARAGNASASA [HC1517]
5. CARVRRAAQAAGNASASA [FS-2535]
6. CAGRCREKRRAGNASASA [FS-431]

1. -0.337
2. 0.0797
3. -1.8
4. 0.266
5. 7.6
6. 7.82

For every listed record, write down its furin cleavage Z-score.
1. CAMAECSQHLAGNASASA [HC1683]
2. CAMWHREKRRAGNASASA [FS-1141]
3. CARALRSLDLAGNASASA [FS-2325]
4. CAPAAYAAQGAGNASASA [HC781]
5. CARSCRAAQAAGNASASA [FS-3076]

-0.153
5.23
2.8
1.54
1.19

For every listed record, write down its furin cleavage Z-score.
1. CARALRSSGTAGNASASA [FS-1944]
2. CAEVPCHRDSAGNASASA [HC2391]
3. CARVRRQLDRAGNASASA [FS-3174]
4. CARVRRAAQGAGNASASA [FS-2105]

-0.353
1.52
12.6
8.61

Ref: the supplement of paper PMC3545927
